meta.source: PubChem BioAssay

system: TRPC4 beta (transient receptor potential cation channel C4), mouse; assay: potentiation of DAMGO EC20 TRPC4 response – cell-based, Fluo-4, HEK293 TRPC4beta/mu-opioid, confirmation (AID 2555); conditions: DAMGO EC20, Fluo-4 calcium flux, at 10 µM
Activity calls are given as the source filed them.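 The calls were made as follows: active = primary screen hit whose calcium fluorescence ratio, in both repeats, exceeds the weak agonist control mean by 3 SD; inactive = the rest.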
Outcome codes: true (active), false (inactive)

# compound, label
data = [
    ("O=C(COC(=O)c1cc2c(s1)CCCCC2)NC1CCS(=O)(=O)C1 (stereo not drawn)", "false"),
    ("O=C(COc1ccccc1)NC1CCCCCCC1", "true"),
    ("CC(Oc1ccc(Cl)cc1Cl)c1nc(-c2ccccn2)no1 (stereo not drawn)", "false"),
    ("COc1ccc(C(CNC(=O)c2ccccc2SC)N(C)C)cc1 (stereo not drawn)", "false"),
    ("Cc1ccc(NC(=S)N(CCCN(C)C)Cc2cc3cc4c(cc3[nH]c2=O)OCO4)c(C)c1", "false"),
    ("CCOc1ccc(Cl)cc1/C=N/O", "false"),
    ("Cc1ccccc1Cn1c(CN2CCc3ccccc3C2)nc2c1c(=O)n(C)c(=O)n2C", "true"),
    ("NNc1ccc(Cc2ccc(Cl)cc2Cl)nn1", "false"),
    ("O=S(=O)(Nc1ccc(S(=O)(=O)Nc2cccc3ccccc23)cc1)c1ccccc1", "false"),
    ("COc1ccc(CNCc2cn(-c3cccc(F)c3)nc2-c2ccc(C)o2)cc1", "false"),
    ("CCOP(=O)(OCC)c1nc(-c2ccc(Cl)cc2Cl)oc1N1CCCCC1", "false"),
    ("CC1CC(C)CN(CCCNC(=O)c2ccc(N3CCCC3=O)cc2)C1 (stereo not drawn)", "false"),
    ("Cc1cc(C(C)(C)C)cc(S(=O)(=O)Nc2cccc(C(=O)O)c2)c1C", "true"),
    ("Cc1nn(C(=O)CNS(=O)(=O)c2ccccc2)c(C)c1Sc1ccc(Cl)cc1", "false"),
    ("Cc1cc(OCc2cc(C(=O)NCC3(C)COC3)no2)cc(C)c1Cl", "false"),
    ("c1ccc(COC(CN2CCCCCC2)CN2CCCCCC2)cc1", "false"),
    ("CSC1=NC2(CCCCC2)C2=C(CCCC2)N1", "false"),
    ("COc1ccc(C(CNC(=O)Cc2ccc(-c3ccccc3)cc2)N(C)C)cc1 (stereo not drawn)", "false"),
    ("CCCCCCc1cc2cc(-c3nnc(-c4cc(OC)c(OC)c(OC)c4)o3)c(=O)oc2cc1O", "true"),
    ("CC[n+]1c(/C=C/c2ccc(OC(C)=O)c(OC)c2)ccc2ccccc21", "false"),
    ("CCOC(=O)C1(Cc2cccc(OC)c2)CCN(Cc2cccc(O)c2)CC1", "false"),
    ("CN1CCN(c2ccc(NC(=O)c3ccc(Br)o3)cc2)CC1", "false"),
    ("CC1CCc2c(sc3ncnc(SCC(=O)Nc4ccc(C(=O)O)cc4)c23)C1 (stereo not drawn)", "false"),
]

* * *

molecular target: Short transient receptor potential channel 4 (Mus musculus) (UniProt Q9QUQ5); test: blockers of DAMGO-evoked TRPC4 calcium flux – cell-based, Fluo4, HEK293 TRPC4beta/mu-opioid, confirmation (AID 2636); conditions: at 10 µM
Sequence (Q9QUQ5 whole entry, looked up): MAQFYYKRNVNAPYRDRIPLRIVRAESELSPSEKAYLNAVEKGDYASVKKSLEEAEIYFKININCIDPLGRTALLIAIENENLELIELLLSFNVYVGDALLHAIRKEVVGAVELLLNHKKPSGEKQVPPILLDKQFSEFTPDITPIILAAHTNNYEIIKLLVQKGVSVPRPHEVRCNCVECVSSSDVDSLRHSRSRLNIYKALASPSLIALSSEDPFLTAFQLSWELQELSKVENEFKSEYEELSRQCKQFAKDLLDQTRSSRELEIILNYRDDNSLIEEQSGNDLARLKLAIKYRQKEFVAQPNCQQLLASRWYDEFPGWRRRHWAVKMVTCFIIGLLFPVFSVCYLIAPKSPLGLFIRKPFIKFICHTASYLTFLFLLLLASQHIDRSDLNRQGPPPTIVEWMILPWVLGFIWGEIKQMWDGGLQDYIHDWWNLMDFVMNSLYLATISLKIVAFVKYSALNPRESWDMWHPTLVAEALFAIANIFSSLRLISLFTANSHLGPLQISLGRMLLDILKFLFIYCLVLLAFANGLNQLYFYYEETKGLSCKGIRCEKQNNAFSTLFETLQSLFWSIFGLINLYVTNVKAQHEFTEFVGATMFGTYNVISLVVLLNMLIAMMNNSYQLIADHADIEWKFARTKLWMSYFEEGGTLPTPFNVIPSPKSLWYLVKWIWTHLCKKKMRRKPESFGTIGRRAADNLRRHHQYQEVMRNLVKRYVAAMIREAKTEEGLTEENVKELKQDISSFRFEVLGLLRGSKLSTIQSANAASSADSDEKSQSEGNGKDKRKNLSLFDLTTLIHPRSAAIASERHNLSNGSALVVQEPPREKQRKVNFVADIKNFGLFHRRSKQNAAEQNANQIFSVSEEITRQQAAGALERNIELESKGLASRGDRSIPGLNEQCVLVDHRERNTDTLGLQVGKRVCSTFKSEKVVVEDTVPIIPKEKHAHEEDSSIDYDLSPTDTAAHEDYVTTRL
The source made the active and inactive calls.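 How the source made its calls: active means calcium signal cut by more than 3 SD below the full-agonist control yet still positive, in both repeats and the earlier primary screen; inactive means the rest.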
Outcome codes: YES (active), NO (inactive)

# compound, label
records = [
    ("CCCCc1nc(SCCOC)c2c(=O)n(C)c(=O)n(C)c2n1", "YES"),
    ("CSc1nc(N2CCOCC2)c2c3c(sc2n1)CCCC3", "YES"),
    ("CC(C)Oc1cc(N)c(Cl)cc1Cl", "NO"),
    ("CCOC(=O)C1=NNC(C(=O)c2ccc(Cl)cc2)C1c1ccc(OC)cc1 (stereo unspecified)", "NO"),
    ("Cc1ccccc1-n1c(=O)c2c(n3cnnc13)-c1ccccc1CC21CCCCC1", "NO"),
    ("COc1cc(/C=C2\\SC(=O)N(c3ccccc3Cl)C2=O)cc([N+](=O)[O-])c1O", "YES"),
    ("Cc1cc(S(=O)(=O)NC2CCN(Cc3ccccc3)CC2)c(C)cc1Cl", "NO"),
    ("Cc1cccc(N2CCN(C(=O)C3(S(=O)(=O)c4ccc(Cl)cc4)CC3)CC2)c1C", "NO"),
    ("Cc1cc(OCCn2ccnc2)cc(C)c1Cl", "NO"),
    ("O=C(O)c1ccc(N2CCN(C(c3ccccc3)c3ccccc3)CC2)c([N+](=O)[O-])c1", "NO"),
    ("COC(=O)[C@H](Cc1ccccc1)NC(=O)c1ccc2ccccc2n1", "NO"),
]

* * *

biological target: Short transient receptor potential channel 4 (Mus musculus); test: calcium flux activators in TRPC4/5HT1a cells, counter-screen for TRPC4 activator project, cell-based, second counter screen, HEK293 TRPC4/5HT1a, Fluo-4 (AID 434977); details: Fluo-4 calcium flux, at 10 µM
Calls of active or inactive are those of the source.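 Rule for the calls: active = calcium signal rise above buffer-control mean plus 5 SD in both duplicates, and also a hit in the primary screen; inactive = the rest.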
Outcome codes: Yes (active), No (inactive)

# molecule, assayed-system, label
data = [
    ("CCCn1ncc(CN2CCC(n3nccc3NC(=O)CCc3ccccc3)CC2)c1C", "Short transient receptor potential channel 4 (Mus musculus)", "No"),
    ("CCN(C(=O)c1c(-c2ccccc2Cl)noc1C)C1CCCCC1", "Short transient receptor potential channel 4 (Mus musculus)", "No"),
    ("O=C(Cc1cccc(F)c1F)NC1CCCN(Cc2ccc(Cl)cc2)C1 (stereo unspecified)", "Short transient receptor potential channel 4 (Mus musculus)", "No"),
    ("OCC1(CCc2ccccc2)CCN(Cc2ccc3nsnc3c2)CC1", "Short transient receptor potential channel 4 (Mus musculus)", "No"),
    ("O=C(c1sc2ccccc2c1Cl)N(Cc1ccccc1)C1CCS(=O)(=O)C1 (stereo unspecified)", "Short transient receptor potential channel 4 (Mus musculus)", "No"),
    ("O=C(Cc1cn(Cc2cccc(Cl)c2)c2ccccc12)N1CCCC1", "Short transient receptor potential channel 4 (Mus musculus)", "No"),
    ("Cc1oc(-c2ccc(Cl)cc2)nc1CN1CCC(C(=O)N2CCc3ccccc3C2)CC1", "Short transient receptor potential channel 4 (Mus musculus)", "No"),
    ("O=C(NCCN1CCOCC1)c1cc2sccc2n1Cc1ccc(F)cc1", "Short transient receptor potential channel 4 (Mus musculus)", "No"),
    ("c1ccc(COC(CN2CCCCCC2)CN2CCCCCC2)cc1", "Short transient receptor potential channel 4 (Mus musculus)", "No"),
    ("CCOc1c(Cl)cc(CNCC(O)c2ccccc2)cc1OC (stereo unspecified)", "Short transient receptor potential channel 4 (Mus musculus)", "No"),
    ("O=C(COc1cc(Cl)c(Cl)cc1Cl)NCCc1ccccn1", "Short transient receptor potential channel 4 (Mus musculus)", "Yes"),
]

* * *

test system: TRPC4 beta (transient receptor potential cation channel C4), mouse; assay: potentiation of DAMGO EC20 TRPC4 response – cell-based, Fluo-4, HEK293 TRPC4beta/mu-opioid, confirmation (AID 2555); settings: DAMGO EC20, Fluo-4 calcium flux, at 10 µM
Activity calls are given as the source filed them.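 The calls were made as follows: active = primary screen hit whose calcium fluorescence ratio, in both repeats, exceeds the weak agonist control mean by 3 SD; inactive = the rest.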
Outcome codes: active, inactive

# molecule, label
measured = [
    ("CCCN(c1nc(C)cc(OC)n1)S(=O)(=O)c1ccccc1", "inactive"),
    ("COc1ccc(OC)c(Nc2c3c(nc4ccccc24)CCC3)c1", "inactive"),
    ("Cc1ccc(-c2nn(-c3cccc(F)c3)cc2CNCc2cccnc2)o1", "inactive"),
    ("Cc1cc(Cl)c2oc(C(=O)N(C)Cc3nccn3C)c(C)c2c1", "inactive"),
    ("CCCn1c(=O)c2sccc2n2c(CCCC(=O)NC3CCN(Cc4ccccc4)CC3)nnc12", "active"),
    ("CCOc1ccc(CN2CCN(C(=O)c3ccccc3)CC2)cc1", "inactive"),
    ("CC1(C)Cc2nc3oc4c(=O)n(CC(=O)Nc5ccccc5)cnc4c3cc2CO1", "inactive"),
    ("Cc1cc(CN2CCCC(C(=O)Nc3ccc(-c4nc5ccccc5[nH]4)cc3)C2)n[nH]1 (stereo unspecified)", "inactive"),
    ("O=C1/C(=C/c2ccccc2Cl)SC(=S)N1CCCC(=O)N(CCO)c1ccccc1", "inactive"),
    ("Cc1ccc(S(=O)(=O)c2cnc(-c3ccccc3)nc2N2CCN(C)CC2)cc1", "inactive"),
    ("c1csc(CNc2nc(-c3cccs3)nc3ccccc23)c1", "inactive"),
]

* * *

test system: TRPC4 beta (transient receptor potential cation channel C4), mouse; test: TRPC4 cation channel opening, retest – cell-based, Fluo4 calcium, HEK293 TRPC4beta/mu-opioid, duplicates, 10 µM, confirmation (AID 2426); conditions: Fluo4 calcium fluorescence, at 10 µM
The source made the active and inactive calls.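 How the source made its calls: active means fluorescence ratio normalized to control raised more than 50% in primary screen plus both repeat runs; inactive means the rest.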
Outcome codes: active, inactive

# molecule, label
measured = [
    ("Cc1cc(C(C)(C)C)cc(S(=O)(=O)Nc2cccc(C(=O)O)c2)c1C", "inactive"),
    ("COc1ccc(-c2nn(-c3ccccc3C)cc2CNCc2cccnc2)cc1F", "active"),
    ("Cc1ccc(-n2nc(-c3cccs3)cc2C(=O)NCC2CCCO2)c(C)c1 (stereo not given)", "inactive"),
    ("CC(C)NCC(O)COCCOc1ccc(C(C)(C)C)cc1 (stereo not given)", "inactive"),
    ("CCCCCn1c2c(c(=N)c3ccccc31)CCC2", "inactive"),
    ("COc1ccc(/C=C2/SC(=S)N(CCCC(=O)Nc3ccccc3C(=O)O)C2=O)cc1", "inactive"),
    ("O=C1c2ccccc2S(=O)(=O)c2cc(C(=O)N(c3ccccn3)c3ccccn3)ccc21", "active"),
    ("CCOC(=O)CC(NC(=O)c1cc2cc(Br)ccc2oc1=O)c1cccc([N+](=O)[O-])c1 (stereo not given)", "inactive"),
    ("O=C(c1ccccc1F)N1CCN(c2ccc([N+](=O)[O-])cc2-n2cccc2)CC1", "inactive"),
    ("CC1(C)CC(=O)C(C=NCCN2CCN(C3CC(=O)N(c4cccc(Br)c4)C3=O)CC2)=C(O)C1 (stereo not given)", "inactive"),
]
